Target: Nrg2 (UniProt P38082)
Sequence: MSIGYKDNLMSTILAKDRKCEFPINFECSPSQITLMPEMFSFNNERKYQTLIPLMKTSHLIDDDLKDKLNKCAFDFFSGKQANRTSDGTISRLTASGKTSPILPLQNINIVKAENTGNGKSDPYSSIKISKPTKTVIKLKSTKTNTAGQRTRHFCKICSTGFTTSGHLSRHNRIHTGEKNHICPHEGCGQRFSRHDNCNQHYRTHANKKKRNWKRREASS
Experiment: PBM E-score (8-mer binding enrichment) (E-score (-0.5 to 0.5)); higher = stronger / more preferred TF binding
Conditions: protein concentration: 100 nM; construct: GST-full length
The full ranking holds about 33,000 sequences; the median of “E-score (-0.5 to 0.5)” is about -8e-05, and the highest 2% start at about 0.23. This excerpt belongs to a sample that is enriched for the highest values.
Kind request: treat -0.005 as inclusive, so PBM E-score at -0.005 or higher is Met, anything lower is Not met.

# Query Sequence, Qualitative Label
rows = [
    ("AGAACGAA", "Met"),
    ("ACCCTGCC", "Met"),
    ("ACTTGTAA", "Not met"),
    ("GCCGAAAA", "Met"),
    ("AAGACCCA", "Not met"),
    ("ACCTTAGG", "Not met"),
    ("ATCCTTGC", "Not met"),
    ("AGCCGAAG", "Not met"),
    ("ATAATTAC", "Met"),
    ("CCCCTGCA", "Met"),
    ("ACCCTGCT", "Met"),
    ("CACCGCAA", "Met"),
    ("CCCCTGCG", "Not met"),
    ("AACCGCAA", "Met"),
    ("ATAATTGA", "Met"),
    ("CTCTAGCC", "Not met"),
    ("CCCGAAAA", "Met"),
    ("GTACTACA", "Met"),
    ("CACCGCAG", "Met"),
    ("TTAATTAA", "Met"),
    ("AGCCTGCA", "Met"),
]

###

This section presents sequences with their documented PBM E-score values.
Target: Nrg2 (UniProt P38082)
Sequence: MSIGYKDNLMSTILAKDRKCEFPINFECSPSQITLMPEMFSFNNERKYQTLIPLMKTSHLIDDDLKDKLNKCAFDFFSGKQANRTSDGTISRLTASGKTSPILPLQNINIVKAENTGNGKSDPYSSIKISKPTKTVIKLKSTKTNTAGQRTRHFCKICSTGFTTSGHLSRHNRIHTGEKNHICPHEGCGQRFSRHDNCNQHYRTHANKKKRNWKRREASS
Experiment: PBM E-score (8-mer binding enrichment) (E-score (-0.5 to 0.5)); higher = stronger / more preferred TF binding
Settings: protein concentration: 100 nM; construct: GST-full length
The full ranking holds about 33,000 sequences; the median of “E-score (-0.5 to 0.5)” is about -8e-05, and the highest 2% start at about 0.23. This excerpt belongs to a sample that is enriched for the highest values.

# Query Sequence, PBM E-score
measured = [
    ("GAGCTACA", -0.114),
    ("TGACCCCA", 0.0468),
    ("CTACGTTC", -0.178),
    ("ATATACAC", 0.081),
    ("ATGAGCTA", 0.069),
    ("CAATTTAC", 0.12),
    ("ATACCGGA", -0.222),
    ("AAGGGTCG", 0.132),
    ("CGCAGAAA", 0.0592),
    ("CGGAGCAA", 0.0265),
    ("ATGGCCTC", -0.0922),
    ("GAATATTC", 0.24),
    ("AAGGGGAT", 0.205),
    ("ATTGTCGA", 0.0199),
    ("CACCTCTC", -0.0403),
    ("TCTTCTAA", -0.0126),
    ("ACGCGGAA", -0.0174),
    ("AGGGGCAT", 0.00378),
    ("CGAGTTAC", 0.215),
    ("GAGGGTCC", 0.282),
    ("CTGAGAAC", 0.0907),
    ("AGGACTAA", -0.0768),
    ("AGCAAAGA", -0.0188),
    ("AATTGCTA", 0.0948),
    ("CTATCCGA", -0.04),
    ("GAATATGA", -0.0524),
    ("ATATGGAG", 0.147),
    ("TATCGCGA", 0.252),
    ("GGTGAGAA", -0.0568),
    ("TGAGTTAA", 0.0318),
    ("CACACCAA", 0.063),
    ("CGATTATA", 0.138),
    ("ATTGAGAC", 0.0341),
    ("ATTGAGAG", 0.0708),
    ("AGTCGCGA", 0.226),
    ("AAATGCGC", 0.272),
    ("CAGCCAGG", 0.0441),
    ("CATCGCGA", 0.127),
    ("ATTTCTCG", 0.285),
    ("CAATGCGC", 0.145),
    ("ATTTCTCC", 0.0443),
    ("CGCGCGCC", 0.211),
    ("ATTTCGCG", 0.275),
    ("ATATCCGG", 0.0451),
    ("CTATACAA", -0.0419),
    ("TAGCATGA", 0.149),
    ("ATCGTGCG", 0.272),
    ("CCAACCTA", -0.118),
    ("ATGAGATC", 0.0358),
    ("CACGCGAG", 0.225),
    ("ATATACAA", 0.237),
    ("GCGGGTCC", -0.0518),
    ("GCAAACGA", 0.0657),
    ("CCCGCGCG", 0.178),
    ("AGTAGGAA", -0.0957),
    ("GCTAGCAA", -0.0969),
    ("AGCATAGA", -0.0952),
    ("ATTGTCGC", 0.136),
    ("CAGGGTCG", 0.264),
    ("CAAGTTGG", 0.225),
    ("GCTGAAGA", -0.0685),
    ("TCAGATGA", 0.148),
    ("ATATCCGA", 0.235),
    ("ATCCAAAT", 0.0165),
    ("AGATCAAC", 0.07),
    ("ATTGTCGG", 0.247),
    ("ACTCGCGC", 0.0455),
    ("GCCGGAAA", 0.104),
    ("AAATCCAT", 0.266),
    ("GTGCAGCA", -0.172),
    ("CGGCGAAC", -0.0868),
    ("CTATACTA", 0.111),
    ("AAATCCAC", 0.082),
    ("GAATATTA", 0.232),
    ("GGGACAAA", 0.11),
    ("AATTGCTG", 0.257),
    ("CCCTCATC", -0.0723),
    ("AATTCTCC", 0.118),
    ("TCAGACAA", 0.0781),
    ("GGACCCCA", 0.236),
    ("ATTTCGCA", 0.274),
    ("CGAGATAG", 0.0116),
    ("AATCGCCA", 0.0545),
    ("CATCCACA", 0.0702),
    ("AAATATTC", 0.127),
    ("AAGATCCC", 0.132),
    ("AAGAATGG", 0.0626),
    ("AACAGATG", -0.0815),
    ("CAATATTC", 0.0479),
    ("ATTGGAGG", -0.149),
    ("GCAACAGA", 0.0125),
]

###

Target: Nrg2 (UniProt P38082)
Sequence: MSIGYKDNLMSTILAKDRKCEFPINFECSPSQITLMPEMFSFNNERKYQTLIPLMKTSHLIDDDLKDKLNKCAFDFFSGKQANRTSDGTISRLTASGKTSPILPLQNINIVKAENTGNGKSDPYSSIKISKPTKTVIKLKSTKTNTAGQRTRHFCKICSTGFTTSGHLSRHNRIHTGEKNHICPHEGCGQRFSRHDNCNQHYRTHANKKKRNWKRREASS
Test: PBM E-score (8-mer binding enrichment) (E-score (-0.5 to 0.5)); higher = stronger / more preferred TF binding
Details: protein concentration: 100 nM; construct: GST-full length
The full ranking holds about 33,000 sequences; the median of “E-score (-0.5 to 0.5)” is about -8e-05, and the highest 2% start at about 0.23. This is one part of a sample in which the highest values are shown more often than they occur.
This section presents sequences with their documented PBM E-score values.

# Query Sequence, Assayed System, PBM E-score
rows = [
    ("GCTCAAGC", "Nrg2 (UniProt P38082)", -0.0931),
    ("GGATCGCC", "Nrg2 (UniProt P38082)", 0.0218),
    ("TATAGACA", "Nrg2 (UniProt P38082)", 0.0604),
    ("AATGCAAT", "Nrg2 (UniProt P38082)", -0.287),
    ("CTTGGTCA", "Nrg2 (UniProt P38082)", 0.138),
    ("CTTCTCTA", "Nrg2 (UniProt P38082)", -0.137),
    ("CGATATAC", "Nrg2 (UniProt P38082)", 0.113),
    ("CGATATTA", "Nrg2 (UniProt P38082)", 0.23),
    ("CTACTGAG", "Nrg2 (UniProt P38082)", -0.00592),
    ("GGATATTA", "Nrg2 (UniProt P38082)", 0.147),
    ("ATTAGTGA", "Nrg2 (UniProt P38082)", 0.114),
    ("CTATAGGA", "Nrg2 (UniProt P38082)", -0.0776),
    ("AGGTACTA", "Nrg2 (UniProt P38082)", 0.0762),
    ("CTGTGCTC", "Nrg2 (UniProt P38082)", 0.0672),
    ("ATCCGAAG", "Nrg2 (UniProt P38082)", -0.0314),
    ("ATACTGAG", "Nrg2 (UniProt P38082)", 0.255),
    ("AAGAATCC", "Nrg2 (UniProt P38082)", 0.0617),
    ("CGATATAA", "Nrg2 (UniProt P38082)", 0.244),
    ("ATTGGTCA", "Nrg2 (UniProt P38082)", 0.0477),
    ("ATACTGAT", "Nrg2 (UniProt P38082)", 0.225),
    ("ATTAGTTA", "Nrg2 (UniProt P38082)", 0.268),
    ("CGATATAG", "Nrg2 (UniProt P38082)", 0.14),
]
